Attribution: paper PMC7155171

Assay explanation: HepG2 cytotoxicity screening (CellTiter-Glo)
Condition label: human, uninfected HepG2-A16-CD81 (EGFP) hepatocytes
Measurement name: IC50

// below: answered molecules
| Molecule | IC50 |
| --- | --- |
| CCn1ccnc1CNCC(c1ccc(C)s1)N1CCOCC1 (centres unmarked) [UCSD-0810145] | 46.2 µM |
| Fc1ccc(N2CCCN(c3ccc(Cn4ccnc4)cn3)CC2)cc1 [UCSD-0828381] | 23.9 µM |
| Cc1cnc(NC(=O)c2csc(NC3CCCC3)n2)s1 [UCSD-0752486] | > 25 µM |
| Cc1cccc(Nc2cc(C3CCCN(CC(N)=O)C3)ccn2)n1 (centres unmarked) [UCSD-0798772] | > 25 µM |
| CCOc1ccc(S(=O)(=O)Nc2cnc(OC)nc2OC)cc1 [UCSD-0788088] | > 25 µM |

Query: IC50 lookup needed for COc1c(C)cnc(CN2CCC(N(C)C(C)C(N)=O)CC2)c1C (centres unmarked) [UCSD-0844796] , thanks.
Reply: > 25 µM

Query: IC50 lookup needed for Cc1noc(NC(=O)c2ccc(OC(F)(F)F)cc2)n1 [UCSD-0844950] , thanks.
Reply: 23.7 µM

Query: IC50 lookup needed for COc1ccc2cc(C3CN(C(=O)CCNC(C)=O)CCO3)ccc2c1 (centres unmarked) [UCSD-0829391] , thanks.
Reply: > 25 µM
